- ASSAY_NOTES: in vivo
- Parameters: species or system Dutch Belted rabbits
- PROTOCOL_CONDITIONS: male, Dutch Belted, rabbit, topical or ocular, 0.0625 mg, t1/2
REPORTED_METRIC: half-life (h)
Give bare numbers, in h.

Query block: Give me measured half-life, please, for this molecule: O=C(Nc1c(F)c(F)c(-c2cccc(OC(F)(F)F)c2)c(F)c1F)c1ccsc1C(=O)O
Result block: 14.3

###

- ASSAY_NOTES: in vivo
- Set-up: species or system Dutch Belted rabbits
- PROTOCOL_CONDITIONS: male, Dutch Belted, rabbit, topical or ocular, 0.125 mg, Cmax
REPORTED_METRIC: Cmax (ng/g)
Answers are plain numbers, in ng/g.

Query block: Give me measured Cmax, please, for this molecule: O=C(Nc1c(F)c(F)c(-c2cccc(OC(F)(F)F)c2)c(F)c1F)c1ccsc1C(=O)O [PP-001]
Result block: 61500

###

- ASSAY_NOTES: in vivo
- Set-up: species or system Dutch Belted rabbits
- PROTOCOL_CONDITIONS: male, Dutch Belted, rabbit, topical or ocular, 0.0625 mg, Cmax
REPORTED_METRIC: Cmax (ng/g)
Give bare numbers, in ng/g.

Query block: Give me measured Cmax, please, for this molecule: O=C(Nc1c(F)c(F)c(-c2cccc(OC(F)(F)F)c2)c(F)c1F)c1ccsc1C(=O)O [PP-001]
Result block: 25700

###

- ASSAY_NOTES: in vivo
- Set-up: species or system Dutch Belted rabbits
- PROTOCOL_CONDITIONS: male, Dutch Belted, rabbit, topical or ocular, 0.125 mg, t1/2
- Experimental: 36 male Dutch Belted rabbits were divided in […]: 16 animals each in group 1 and 2 received 0.0625 mg and 0.125 mg PP-001 per eye, 4 animals were administered with dose vehicle (sucrose solution) only. […] Samples were analysed for PP-001 concentration using a specific HPLC/MS/MS analytical method and PK parameters were calculated with Phoenix WinNonlin software (v6.3) using a non-compartmental model with sparse sampling. […]
REPORTED_METRIC: half-life (h)
Numbers only, in h.

Query block: Give me measured half-life, please, for this compound: O=C(Nc1c(F)c(F)c(-c2cccc(OC(F)(F)F)c2)c(F)c1F)c1ccsc1C(=O)O [PP-001]
Result block: 21.4
